This collection of values is drawn from patent US20190359687A1.

experimental.target: T1, human glycophorin A on human red blood cells or red blood cell membranes (human, UniProt P02724 20-150)
T1 construct: whole, on cells; also called hRBC; human RBC membranes
T1 sequence (looked up): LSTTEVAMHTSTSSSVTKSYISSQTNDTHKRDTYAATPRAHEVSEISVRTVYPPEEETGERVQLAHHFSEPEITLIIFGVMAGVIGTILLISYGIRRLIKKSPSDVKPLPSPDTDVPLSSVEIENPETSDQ
test.protocol: scFv on intact human RBC, unbound scFv by ELISA; 5 min after 200-fold dilution
For each entry below, report its percentage of input scFv antibody bound value.
Give bare numbers, in %.

The cases that follow already have their percentage of input scFv antibody bound on record.
binder	reported.value
TPP-7783 scFv with C-terminal 6xHIS tag (scFv) scFv: DIQLTQSPSFLSASVGDRVTITCRASSSVRYIYWFQQKPGKAPKLLIYATSFRRSGVPSRFSGSGSGTEYTLTISSLQPEDFATYYCHQRNSFPYTFGQGTKLEIKGGGGSGGGGSGGGGSGGGGSEVQLVQSGAEVKKPGASVKVSCKASGYTFTTYAIHWVRQAPGQGLEWMGYINPSSGYTRYNPKFKHRVTMTRDKSTSTAYMELRSLRSDDTAVYYCWTGTRDYWGQGTTVTVSSHHHHHH	94
TPP-7793 scFv with C-terminal 6xHIS tag (scFv) scFv: DIQLTQSPSFLSASVGDRVTITCRASSSVSYIYWFQQKPGKAPKLLIYATSTLQSGVPSRFSGSGSGTEYTLTISSLQPEDFATYYCHQRNSFPYTFGQGTKLEIKGGGGSGGGGSGGGGSGGGGSEVQLVQSGAEVKKPGASVKVSCKASGYTFTRYTIHWVRQAPGQGLEWMGYINPSSGYTRYNPKFKGRVTMTRDKSTSTAYMELRSLRSDDTAVYYCWTGTRDYWGQGTTVTVSSHHHHHH	92

Kindly consider the entry below.
The binder identified as TPP-7778 scFv with C-terminal 6xHIS tag (scFv) scFv: DIQLTQSPSFLSASVGDRVTITCRASSSVRYIYWFQQKPGKAPKLLIYATSTLQSGVPSRFSGSGSGTEYTLTISSLQPEDFATYYCHQRNSFPYTFGQGTKLEIKGGGGSGGGGSGGGGSGGGGSEVQLVQSGAEVKKPGASVKVSCKASGYTFTTYAIHWVRQAPGQGLEWMGYINPSSGYTRYNPKFKHRVTMTRDKSTSTAYMELRSLRSDDTAVYYCQTGTRDYWGQGTTVTVSSHHHHHH registered its percentage of input scFv antibody bound at 88
